# assay_explanation: Plasma toxicokinetics in dogs, 14 day repeat dose study
# Assay type: in vivo, dog
# test_context: dog, plasma, po; female dogs, 0.5 mg/kg, D 14
# Procedure: Noribogaine HCl was administered to groups of 4 male and 4 female dogs by single oral gavage daily for 14 days at doses of 0, 0.5, 1.0 and 5.0 mg/kg/day. An additional group of 4 male and 4 female dogs received either the vehicle control or 5.0 mg/kg/day for 14 days and were held for an additional 28 days after cessation of dosing to assess recovery from any potential drug-induced changes. […]
recorded_endpoint: Cmax at 14 day of dosing (µg/mL)

[
  {
    "smiles_str": "CC[C@H]1CC2C[C@H]3c4[nH]c5ccc(O)cc5c4CCN(C2)C13",
    "val": 0.0298
  }
]

---

# assay_explanation: Plasma toxicokinetics in dogs, 14 day repeat dose study
# Format: in vivo, dog
# test_context: dog, plasma, po; female dogs, 5.0 mg/kg, D 14
# Method: Noribogaine HCl was administered to groups of 4 male and 4 female dogs by single oral gavage daily for 14 days at doses of 0, 0.5, 1.0 and 5.0 mg/kg/day. An additional group of 4 male and 4 female dogs received either the vehicle control or 5.0 mg/kg/day for 14 days and were held for an additional 28 days after cessation of dosing to assess recovery from any potential drug-induced changes. […]

[
  {
    "smiles_str": "CC[C@H]1CC2C[C@H]3c4[nH]c5ccc(O)cc5c4CCN(C2)C13",
    "reading_unit": "min",
    "Tmax at 14 day of dosing": 36
  }
]

---

# assay_explanation: Plasma toxicokinetics in dogs, 14 day repeat dose study
# Type: in vivo, dog
# test_context: dog, plasma, po; female dogs, 0.5 mg/kg, D 1
recorded_endpoint: Cmax at 1 day of dosing

[
  {
    "compound": "CC[C@H]1CC2C[C@H]3c4[nH]c5ccc(O)cc5c4CCN(C2)C13 [noribogaine]",
    "val": "25.3 ng/mL"
  }
]

---

# assay_explanation: Plasma toxicokinetics in dogs, 14 day repeat dose study
# Type: in vivo, dog
# test_context: dog, plasma, po; female dogs, 1.0 mg/kg, D 14

[
  {
    "smiles_str": "CC[C@H]1CC2C[C@H]3c4[nH]c5ccc(O)cc5c4CCN(C2)C13",
    "reading_unit": "ng/mL",
    "Cmax at 14 day of dosing": 74.1
  }
]

---

# assay_explanation: Plasma toxicokinetics in dogs, 14 day repeat dose study
# Type: in vivo, dog
# test_context: dog, plasma, po; female dogs, 1.0 mg/kg, D 1

[
  {
    "compound": "CC[C@H]1CC2C[C@H]3c4[nH]c5ccc(O)cc5c4CCN(C2)C13 [noribogaine]",
    "reading_unit": "ng/mL",
    "Cmax at 1 day of dosing": 68.5
  }
]

---

# assay_explanation: Plasma toxicokinetics in dogs, 14 day repeat dose study
# Assay type: in vivo, dog
# test_context: dog, plasma, po; female dogs, 5.0 mg/kg, D 14

[
  {
    "smiles_str": "CC[C@H]1CC2C[C@H]3c4[nH]c5ccc(O)cc5c4CCN(C2)C13",
    "Cmax at 14 day of dosing (ng/mL)": 683
  }
]
